The measured values listed here are drawn from the supplement of paper PMC9170038.

So I've got a bunch of sequences here, and I need their apparent KD of MS2 coat protein values.
# System: MS2 coat protein
# assay.explanation: apparent KD of MS2 coat protein; designed switch direction (-1 OFF switch, 1 ON switch): -1; higher = weaker reporter binding
# experimental.parameters: input ligand: microRNA oligo, concentration not stated
Supply the numeric figure in nM, leaving out any unit text.

Query: For AAAUAAAAACAAGCAAAACACAUGAGGAUCACCCAUGUAAAGGGUGAAGUUCGCACCCAAAAAUAAAAUAAAUAAAA [another turnoff var 1st] (Eterna round: R96, puzzle: Sensor v2, turn-off variant) , what is its reported apparent KD of MS2 coat protein?
Response: 29.8

Query: Fill in the blank: the reported apparent KD of MS2 coat protein of AAGAAGAAGUAAGGAUAUGAAGAUUUGGUGAUAACAUGAGGAUCACCCAUGUGAAAACAAUAAGAUCAGAAGGUAUAAGAAGAA [AK ExNG2-2.1] (Eterna round: R96, puzzle: Exclusion NG 2) is ____.
Response: 42.1

Query: apparent KD of MS2 coat protein lookup needed for UUUAAGGUAAUUAAGAUCACAUGAGGAUCACCCAUGUAUAUAUAGGAUAUCAGCUCGAUUAGAGCUGAGAAGGAUAUAUACAUA [ExNG3/6-C1] (Eterna round: R96, puzzle: Exclusion NG 3) , thanks.
Response: 33.3

Query: Give its apparent KD of MS2 coat protein value. Item: UUAUUAUAUGUAGGAUAUGCGUAUUAUUGUUAUGCAGAAGGACAUGAGGAUCACCCAUGUAUAUUAUUGUUAUGUAUUAUAUAU [Title] (Eterna round: R96, puzzle: Exclusion NG 1)
Response: 26.6

Query: Look up apparent KD of MS2 coat protein: UCAAUUUUGCGAGGAUAUCGACCAUUCCUCUUUACAUGAGGAUCACCCAUGUACUUAUUCUACAACGAGAAGGCGCUCAUAGUU [JR_ExcNG2_Sub064] (Eterna round: R96, puzzle: Exclusion NG 2)
Response: 30

Query: // lookup apparent KD of MS2 coat protein for UAGUUAAACACAGGAUAUCGCCUCUUAUUACAUGAGGAUCACCCAUGUUUAGUUAGUUACAUGUUCGAGAAGGGUGAAGUAGUU [JR_ExcNG2_Sub041] (Eterna round: R96, puzzle: Exclusion NG 2)
Response: 1300

Query: # apparent KD of MS2 coat protein lookup, item AUCAGCUCGUGAGGAUAUACAUGAUAGAUCGAUUAAUUAAUUAAUUUAACAUGAGGAUCACCCAUGUAGAAGGCACGAGCUGAU [ENG2/1-A3] (Eterna round: R96, puzzle: Exclusion NG 2)
Response: 30

Query: Consider the sequence UACAUGAGGAUCACCCAUGUUUUGUCGUGUAUGGUAUUUAUCUAGGAUAUCAAUUUAGUUAUUUAUGAGAAGGAGAAUAUUAAU [JMF's solution 18] (Eterna round: R96, puzzle: Exclusion NG 3) and give its measured apparent KD of MS2 coat protein.
Response: 32.8

---

# Tested on: K4 kissing-loop RNA reporter;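 also: bound reporter read as fluorescence of individual clusters on recovered sequencing chips by microscopy, with normalized cluster intensities fitted with a binding model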
# assay.explanation: apparent KD of K4 kissing-loop reporter; higher = weaker reporter binding
# experimental.parameters: Eterna round: R107; input ligand: tryptophan 2.4 mM
Consider the following sequences; for each one, report its apparent KD of K4 kissing-loop reporter.
Dear colleague, please send the value followed by its unit.

Query: What apparent KD of K4 kissing-loop reporter value was documented for this sequence, GAUUAAUAAGAGGAUACCAGUACUAAUAAAGUACAUUAAUAGUAGAGUGAUGUUCUAUAGUACCCUUGGCAGCUUAGAGUAAGUU [#09 K4 Theophylline B Exclusion] ?
Response: 103 nM

Query: So what's the measured apparent KD of K4 kissing-loop reporter for this one? GAUUCAGUGAUGUUGGAAGGCGAGCGGGAUACCAGCGGAGACUCACGCCCUUGGCAGCCCACAUAUCCCAGGUAGAUAAUAGAUC [Same State - Theophylline A (Freestyle 7)]
Response: 180 nM

Query: # lookup: apparent KD of K4 kissing-loop reporter of GGAUAGGACAUAGGAUAUGGUAGUGAUGUUACCAAACUGGUUAAACAUGUCAGAAAACUGGCAUGACCAGAAGGAUGUCCUAUCG [FmnBX 27 U11+A75]
Response: 63.5 nM

Query: Endpoint output: apparent KD of K4 kissing-loop reporter of UCGCGUAAUGGAAGGAGCGGUGCCAGUGAUGUUGGAUACUGCGUGUAUUAGGUCGGAGCGCACCAGGUAGGUCGCCAUUUGGUGG [Tigedies] . Value?
Response: 369 nM

Query: Suppose we examine the sequence UGGUUCAAUACGGCCGCCACUGGUGAGUGAUGUUUACCGUCUAUAUCAUGUGUCGAGAGCGCUAUCAGGACCGGGUAGGGACCGU [theeternabot_exclusion_KL_Trp_B_42] ; what apparent KD of K4 kissing-loop reporter value has been reported?
Response: 458 nM

Query: // lookup apparent KD of K4 kissing-loop reporter for UACAUUUUAUUAACACUAAAUACAACUGAAGGAGCGACAAUAAAGUCAGGUAGGUCGCAGAAUAAAUGAGUGAUGUUCAUUAUUG [JR_ExcArginiA_Sub016]
Response: 51.2 nM

Query: Param item = CUCUAGGCGCUCGCGUGAGUGAUGUUUACGCGAGGACCGGUACGGCCGCCACUCGCAGACUGGGUGUAAGCGGAGCUGUAUGCCC [theeternabot_exclusion_KL_Trp_A_12] ; retrieve measured apparent KD of K4 kissing-loop reporter.
Response: 223 nM
